test system: H1975 (EGFR L858R/T790M mutant); assay: Cell viability assay, H1975; type: cell-based; details: cellular potency ratio;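 note: NSCLC cells whose survival relies on EGFR L858R/T790M, exposed 72 h to serially diluted compound, ATP-based viability readout, with the H2073 line (wildtype EGFR dependent) as wildtype comparator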
Hi there, I'd appreciate the recorded Selectivity over wildtype, Wildtype vs mutant H2073/H1975 (fold) for every entry that follows.

Reported Selectivity over wildtype, Wildtype vs mutant H2073/H1975 (fold) ( C=CCC(=O)Nc1cc(Nc2nccc(-n3cc(CN(C)C)c(-c4ccccc4)n3)n2)c(OC)cc1N1CCOCC1 [Compound 154, reference compound] ) = <20 fold

Entry C=C(F)C(=O)Nc1cc(Nc2nccc(-n3cc(CN4CCC4)c(-c4ccccc4)n3)n2)c(OC)cc1N1CCOCC1 [Compound 159, reference compound] — recorded Selectivity over wildtype, Wildtype vs mutant H2073/H1975 (fold) = <20 fold

Selectivity over wildtype, Wildtype vs mutant H2073/H1975 (fold) recorded for this compound, C=CC(=O)Nc1cc(Nc2nccc(-n3cc(CN4CCC4)c(-c4ccc(C)cc4)n3)n2)c(OC)cc1N1CCOCC1 , is 101-200 fold

So for C=CC(=O)Nc1cc(Nc2nccc(-n3cc(CN(C)C)c(C4CC4)n3)n2)c(OC)cc1N1CCOCC1 , the logged Selectivity over wildtype, Wildtype vs mutant H2073/H1975 (fold) turned out to be >200 fold
